Cited source: patent US20220048967A1

Reported hGIPR cAMP Rel EC50 values are given for each entry in this list.
- SYSTEM TESTED: T1, human gastric inhibitory peptide receptor (GIPR) (human, UniProt P48546 22-466)
- T1 sequence (looked up): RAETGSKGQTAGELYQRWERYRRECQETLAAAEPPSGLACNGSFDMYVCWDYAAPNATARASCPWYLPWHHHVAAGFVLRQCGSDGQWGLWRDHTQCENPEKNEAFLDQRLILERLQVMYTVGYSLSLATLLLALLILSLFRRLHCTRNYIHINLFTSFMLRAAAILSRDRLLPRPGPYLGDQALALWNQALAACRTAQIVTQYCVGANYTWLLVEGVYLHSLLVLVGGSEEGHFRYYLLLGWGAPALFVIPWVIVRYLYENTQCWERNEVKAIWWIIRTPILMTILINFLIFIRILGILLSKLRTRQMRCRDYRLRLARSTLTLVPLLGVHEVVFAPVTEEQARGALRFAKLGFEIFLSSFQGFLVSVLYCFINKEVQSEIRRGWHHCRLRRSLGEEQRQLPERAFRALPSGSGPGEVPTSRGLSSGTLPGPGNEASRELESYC
- EXPERIMENTAL DETAILS: cell-based or functional assay
Numbered stars: 1 amine (or outer) side, 2 acyl side, 3 side chain; on linkers, the order of the positions; unused ones are H or OH. Square brackets hold non-standard residues; d marks the D form. Side chains are listed from the residue outwards. Ends that are not written are not given here. * marks the point of attachment. C20 diacid = O=C(O)CCCCCCCCCCCCCCCCCCC(=O)*; γGlu = O=C(O)[C@H](CCC(=O)[*:2])N[*:1]; αMeF = C[C@](N)(Cc1ccccc1)C(=O)O; AEEA = NCCOCCOCC(=O)O; Aib = CC(C)(N)C(=O)O
QUANTITY NAME: hGIPR cAMP Rel EC50 (pM)

• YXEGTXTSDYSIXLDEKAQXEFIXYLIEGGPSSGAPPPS (Y-Aib-EGT-αMeF-TSDYSI-Aib-LDEK((2-[2-(2-Amino-ethoxy)-ethoxy]-acetyl)2-(γ-Glu)-CO-(CH2)18-CO2H)AQ-Aib-EFI-(D-Glu)-YLIEGGPSSGAPPPS-NH2) [Example 225] = 101
• Y[Aib]EGT[αMeF]TSDYSIXLDKK([AEEA-AEEA-γGlu-C20 diacid])AQ[Aib]AFIEYLIEAGPSSGAPPPS-NH2 (not fully specified (residue 13); printed as Y-Aib-EGT-αMeF-TSDYSI-αMeF-LDKK((2-[2-(2-Amino-ethoxy)-ethoxy]-acetyl)2-(γ-Glu)-CO-(CH2)18-CO2H)AQ-Aib-AFIEYLIEAGPSSGAPPPS-NH2) [Example 126] = 68.5
• YXEGTXTSDXSILLDKKAQXAFIEYLIEGGPSSGAPPPS (Y-Aib-EGT-αMeF-TSD-3Pal-SILLDKK((2-[2-(2-Amino-ethoxy)-ethoxy]-acetyl)2-(γ-Glu)-CO-(CH2)18-CO2H)AQ-Aib-AFIEYLIEGGPSSGAPPPS-NH2) [Example 132] = 65.7
• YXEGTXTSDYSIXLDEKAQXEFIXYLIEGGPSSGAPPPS (Y-Aib-EGT-αMeF(2F)-TSDYSI-Aib-LDEK((2-[2-(2-Amino-ethoxy)-ethoxy]-acetyl)2-(γ-Glu)-CO-(CH2)18-CO2H)AQ-Aib-EFI-(D-Glu)-YLIEGGPSSGAPPPS-NH2) [Example 224] = 54.5
• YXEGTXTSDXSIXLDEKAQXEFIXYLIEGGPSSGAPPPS (Y-Aib-EGT-αMeF(2F)-TSD-4Pal-SI-αMeF-LDEK((2-[2-(2-Amino-ethoxy)-ethoxy]-acetyl)2-(γ-Glu)-CO-(CH2)18-CO2H)AQ-Aib-EFI-Aib-YLIEGGPSSGAPPPS-NH2) [Example 189] = 77.5
